Where do these numbers come from? They come from paper PMC10873978.

Test system: MCF7 cell line
Assay: In vitro cytotoxic activity, MTT method, MCF7
Type: cell-based, human
Conditions: MCF7, Conc. 0.0487 µMol
Quantity Measured: Viability % (%)
# number only, unit % dropped from output

Record CC(=O)c1ccc(NC(=O)c2sc3nc(C)c4c(c3c2N)CC(C)(O)C(C(C)=O)C4c2ccc(N(C)C)cc2)cc1 (stereo not shown) . Reported Viability %: 78.2125

Record CC(=O)C1C(c2ccc(N(C)C)cc2)c2c(C)nc3sc(C(=O)Nc4ccc(C)cc4)c(N)c3c2CC1(C)O (stereo not shown) . Reported Viability %: 99.9322

Record CC(=O)C1C(c2ccc(N(C)C)cc2)c2c(C)nc3sc(C(=O)Nc4ccccc4)c(N)c3c2CC1(C)O (stereo not shown) . Reported Viability %: 101.5

Record CC(=O)C1C(c2ccc(N(C)C)cc2)c2c(C)nc3sc(C(=O)Nc4ccc(Cl)cc4)c(N)c3c2CC1(C)O (stereo not shown) . Reported Viability %: 73.3223

###

Tested on: MCF7 cell line
Assay: In vitro cytotoxic activity, MTT method, MCF7
Type: cell-based, human
Conditions: MCF7, Conc. 0.195 µMol
Provide the reported Viability % of each item.
Phrase the answer as number then unit, nothing more needed.

Record CC(=O)C1C(c2ccc(N(C)C)cc2)c2c(C)nc3sc(C(=O)Nc4ccc(Cl)cc4)c(N)c3c2CC1(C)O (stereo not shown) . Reported Viability %: 59.64%

Record CC(=O)C1C(c2ccc(N(C)C)cc2)c2c(C)nc3sc(C(=O)Nc4ccccc4)c(N)c3c2CC1(C)O (stereo not shown) . Reported Viability %: 100.4%

Record CC(=O)C1C(c2ccc(N(C)C)cc2)c2c(C)nc3sc(C(=O)Nc4ccc(C)cc4)c(N)c3c2CC1(C)O (stereo not shown) . Reported Viability %: 99.8%

Record CC(=O)c1ccc(NC(=O)c2sc3nc(C)c4c(c3c2N)CC(C)(O)C(C(C)=O)C4c2ccc(N(C)C)cc2)cc1 (stereo not shown) . Reported Viability %: 45.87%

###

Provide the reported Viability % of each item.
Test system: MCF7 cell line
Experiment: In vitro cytotoxic activity, MTT method, MCF7
Type: cell-based, human
Conditions: MCF7, 3.125 µMol
Description: Cell lines: The in vitro human breast cancerous cell line (MCF7), lung cancerous cell lines (A549) and normal cell lines were purchased from Serum and Vaccine formulation in Cairo-Egypt. In vitro cytotoxic activity of all synthesized compounds against two human breast cell line (MCF7) and lung cell lines (A549) was evaluated according to the MTT method. […] Finally read the optical density at 560 nm and subtract background at 620 nm. […]
# number only, unit % dropped from output

Record CC(=O)C1C(c2ccc(N(C)C)cc2)c2c(C)nc(SCC(N)=O)c(C#N)c2CC1(C)O (stereo not shown) . Reported Viability %: 11.11

Record CCOC(=O)CSc1nc(C)c2c(c1C#N)CC(C)(O)C(C(C)=O)C2c1ccc(N(C)C)cc1 (stereo not shown) . Reported Viability %: 63.11

Record CSc1nc(C)c2c(c1C#N)CC(C)(O)C(C(C)=O)C2c1ccc(N(C)C)cc1 (stereo not shown) . Reported Viability %: 8.783

Record CC(=O)C1C(c2ccc(N(C)C)cc2)c2c(C)nc(SCC(=O)Nc3ccc(C)cc3)c(C#N)c2CC1(C)O (stereo not shown) . Reported Viability %: 13.56

Record CC(=O)C1C(c2ccc(N(C)C)cc2)c2c(C)nc(SCC(=O)Nc3ccc(Cl)cc3)c(C#N)c2CC1(C)O (stereo not shown) . Reported Viability %: 34.52

Record CC(=O)C1C(c2ccc(N(C)C)cc2)c2c(C)[nH]c(=S)c(C#N)c2CC1(C)O (stereo not shown) . Reported Viability %: 23.65

Record CC(=O)c1ccc(NC(=O)CSc2nc(C)c3c(c2C#N)CC(C)(O)C(C(C)=O)C3c2ccc(N(C)C)cc2)cc1 (stereo not shown) . Reported Viability %: 23.37
